Task for the reader: assign each of the following binders its reported CRE-luc EC50.
- Assay System: full-length human GLP1R on HEK293/CRE-Luc/hGLP1R cells (human, UniProt P43220 24-463)
- Test Method Notes: cell-based or functional assay
Numbers only, in nM.

Binder: COMP Anti-GLP1R mAb1 conjugated to LP4 (antibody, human IgG4 S228P, kappa, V domains shown, azido-PEG3-amine on the Gln of the N-terminal Q-tag LLQGSG, clicked to LP4 (DIBAC-suc-PEG24-P9)) VH: QVTLKESGPGILQPSQTLSLTCSFSGFSLSTSGTGVGWIRQPSGKGLEWLSHIWWDDVKRYNPALKSRLTISRDTSYSQVFLRIASVDTADTATYYCARILDGTGPMDYWGQGTSVTVSS VL: QIVLTQSPAIMSASPGEKVTMTCSASSRVTYMHWYQQRSGTSPKRWIYDTSKLASGVPARFSGSGSGTSYSLTISSMEAEDAATYYCQQWGNNPQYTFGGGTRLEIKR
Reported Measurement: 0.0629

Binder: COMP Anti-GLP1R mAb1 conjugated to LP3 (antibody, human IgG4 S228P, kappa, V domains shown, azido-PEG3-amine on the Gln of the N-terminal Q-tag LLQGSG, clicked to LP3 (DIBAC-suc-PEG12-P9)) VH: QVTLKESGPGILQPSQTLSLTCSFSGFSLSTSGTGVGWIRQPSGKGLEWLSHIWWDDVKRYNPALKSRLTISRDTSYSQVFLRIASVDTADTATYYCARILDGTGPMDYWGQGTSVTVSS VL: QIVLTQSPAIMSASPGEKVTMTCSASSRVTYMHWYQQRSGTSPKRWIYDTSKLASGVPARFSGSGSGTSYSLTISSMEAEDAATYYCQQWGNNPQYTFGGGTRLEIKR
Reported Measurement: 0.044

Binder: COMP Anti-GLP1R mAb1 conjugated to LP2 (antibody, human IgG4 S228P, kappa, V domains shown, azido-PEG3-amine on the Gln of the N-terminal Q-tag LLQGSG, clicked to LP2 (DIBAC-suc-PEG8-P9)) VH: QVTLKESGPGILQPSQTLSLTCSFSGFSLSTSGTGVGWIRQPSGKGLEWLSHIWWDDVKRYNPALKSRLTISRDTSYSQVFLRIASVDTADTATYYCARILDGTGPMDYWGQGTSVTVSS VL: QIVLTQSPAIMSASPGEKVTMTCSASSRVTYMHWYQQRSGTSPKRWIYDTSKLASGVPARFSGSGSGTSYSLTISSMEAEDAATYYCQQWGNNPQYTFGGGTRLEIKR
Reported Measurement: 0.0217

Attention now turns to another entry.
INPUT: Fill in CRE-luc EC50 for record COMP Anti-GLP1R mAb1 conjugated to LP1 (antibody, human IgG4 S228P, kappa, V domains shown, azido-PEG3-amine on the Gln of the N-terminal Q-tag LLQGSG, clicked to LP1 (DIBAC-suc-PEG4-P9)) VH: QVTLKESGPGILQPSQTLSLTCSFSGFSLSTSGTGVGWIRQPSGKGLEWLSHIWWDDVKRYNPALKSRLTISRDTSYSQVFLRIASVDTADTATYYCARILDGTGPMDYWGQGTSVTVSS VL: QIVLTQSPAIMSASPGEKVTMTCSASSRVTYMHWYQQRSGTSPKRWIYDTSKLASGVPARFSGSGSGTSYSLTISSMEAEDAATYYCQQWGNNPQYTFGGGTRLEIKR
OUTPUT: 0.0282
